test system: kochia; test: Test A preemergence; assay type: in vivo, Kochia scoparia; details: 31 g ai/ha, 0 to 100 scale (0 no effect, 100 complete control)
observedProperty: Plant response rating, Kochia

> print(dat)
                                entrysmiles               observedproperty  recordedmeasurement
1  COc1nc(-c2ccc(C(F)(F)F)cc2)nn1Cc1ccnc(C(F)(F)F)c1  Plant response rating, Kochia                   20
2  FC(F)(F)COc1nc(-c2ccc(C(F)(F)F)cc2)nn1Cc1ccnc(C(F)(F)F)c1  Plant response rating, Kochia                   20
3   CCc1nc(-c2ccncc2)nn1Cc1ccnc(C(F)(F)F)c1  Plant response rating, Kochia                    0
4  COc1nc(-c2ccc(OC(F)(F)F)cc2)nn1Cc1ccnc(C(F)(F)F)c1  Plant response rating, Kochia                    0

This collection of values is drawn from patent US10681909B2.
